- ASSAY_SUMMARY: Cytotoxicity against mouse NIH/3T3 cells
- Assay type: cell-based, NIH3T3
- DETAILS: read-out: TC50 (the source's name)
OUTCOME_MEASURE: CC50 (µM)
Express it in µM; write the number only.

CCCN(CC#Cc1cc2c(Nc3ccc(OCc4cccc(F)c4)c(Cl)c3)ncnc2s1)CCC : 2.2

Q. Looking for the measured CC50 of `Fc1cccc(COc2ccc(Nc3ncnc4cc(C#Cc5ccccn5)sc34)cc2Cl)c1` , can you help?
A. 27

###

- System: Plasmodium falciparum
- ASSAY_SUMMARY: Antimalarial activity against Plasmodium falciparum D6 trophozoites after 72 hrs by SYBR Green I dye-based fluorescence assay
- Format: functional, organism-based
- DETAILS: D6, 72 h
OUTCOME_MEASURE: pEC50
The scale used: pEC50 is minus the common logarithm of the concentration in molar units.

Examples with their reported pEC50 follow.
CN(C)CC#Cc1cc2c(Nc3ccc(OCc4cccc(F)c4)c(Cl)c3)ncnc2s1 : 5.82
Fc1cccc(COc2ccc(Nc3ncnc4sc(C#CCN5CCNCC5)cc34)cc2Cl)c1 : 6.42

We now examine a further compound.
Q. Looking for the measured pEC50 of `Fc1cccc(COc2ccc(Nc3ncnc4cc(C#Cc5ncccc5F)sc34)cc2Cl)c1` , can you help?
A. 5.96
